targetEntity: MAGE-A11:PCF11 interaction (GST-MAGE-A11 and FAM-PCF11_4) (Homo sapiens, UniProt P43364)
Construct: GST-MAGE-A11 MHD (human MAGE-A11 MHD amino acid 218-429); made in house; host or cells: E. coli BL21(DE3)
Sequence (P43364 218-429): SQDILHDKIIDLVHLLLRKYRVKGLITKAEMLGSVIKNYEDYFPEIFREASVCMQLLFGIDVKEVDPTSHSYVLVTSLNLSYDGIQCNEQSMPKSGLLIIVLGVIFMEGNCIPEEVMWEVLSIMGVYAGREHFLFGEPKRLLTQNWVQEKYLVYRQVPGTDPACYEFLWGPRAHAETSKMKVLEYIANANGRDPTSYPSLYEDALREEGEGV
testDescription: TR-FRET primary / single point screen at 15 µM
Type: binding
statedConditions: single point TR-FRET screening of 797 quinoline compounds against MAGE-A11:PCF11
reportedEndpoint: percent inhibition (TR-FRET)

[
  {
    "compound": "COc1cccc(CN2CCC(Nc3ccnc4cc(Cl)ccc34)CC2)c1 [SJ000523107]",
    "percent inhibition (TR-FRET)": 3.1492
  },
  {
    "compound": "CCOc1ccc2ncc(C(=O)c3ccc(C)cc3)c(N3CCN(CC)CC3)c2c1 [SJ000247284]",
    "percent inhibition (TR-FRET)": -14.2514
  },
  {
    "compound": "COc1ccc(F)c(CNCCCNc2c3ccc(Cl)cc3nc3ccc(OC)cc23)c1 [SJ000520998]",
    "percent inhibition (TR-FRET)": -354.997
  },
  {
    "compound": "CCCN(CCCNc1c2ccc(Cl)cc2nc2ccc(OC)cc12)Cc1ccc(C(=O)OC)cc1 [SJ000523018]",
    "percent inhibition (TR-FRET)": -118.624
  }
]

Problem: Which percent inhibition (TR-FRET) value is on record for Fc1ccc(CN2CCC(Nc3ccnc4cc(Cl)ccc34)CC2)cc1F [SJ000523089] ?
Solution: -1.958

Problem: Item under review: CCCCCN1CCC(Nc2ccnc3cc(Cl)ccc23)CC1 [SJ000523088] . Reported percent inhibition (TR-FRET)?
Solution: 12.1652

---

Listed compounds paired with reported percent inhibition (TR-FRET)
targetEntity: MAGE-A11:PCF11 interaction (GST-MAGE-A11 and FAM-PCF11_4) (Homo sapiens, UniProt P43364)
Construct: GST-MAGE-A11 MHD (human MAGE-A11 MHD amino acid 218-429); made in house; host or cells: E. coli BL21(DE3)
Sequence (P43364 218-429): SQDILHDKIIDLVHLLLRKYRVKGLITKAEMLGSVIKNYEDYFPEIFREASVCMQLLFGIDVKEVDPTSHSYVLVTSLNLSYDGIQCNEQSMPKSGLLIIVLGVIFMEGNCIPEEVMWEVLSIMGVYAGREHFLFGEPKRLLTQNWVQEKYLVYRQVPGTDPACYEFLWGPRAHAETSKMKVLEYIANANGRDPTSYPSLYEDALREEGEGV
testDescription: TR-FRET primary / single point screen at 15 µM
Type: binding
statedConditions: single point TR-FRET screening of quinoline compounds against MAGE-A11:PCF11; 15 µM
Description: The TR-FRET assay buffer with a formula of 50 mM Tris pH 7.5, 20 mM MgCl2, 0.1 mg/ml BSA and 1 mM DTT was freshly prepared before each experiment. […] After incubation, the fluorescent emission signals at 520 nm and 490 nm channels of individual wells were measured with a PHERAstar FS plate reader (BMG Labtech; Durham, NC, USA) by using a 340 nm excitation filter, 100 µs delay time, and 200 µs integration time. […] The TR-FRET signals for individual wells were measured with a PHERAstar FS plate reader. […]
The answer should be written as a number, with no unit following it.

Some solved entries appear below for comparison.
[
  {
    "compound": "CCOC(=O)c1cnc2c(C)cc(Cl)cc2c1NCCCN1CCOCC1 [SJ000174094]",
    "targetEntity": "MAGE-A11:PCF11 interaction (GST-MAGE-A11 and FAM-PCF11_4) (Homo sapiens, UniProt P43364)",
    "result": -10.5199
  },
  {
    "compound": "CCCN(CCCNc1ccnc2cc(C(F)(F)F)ccc12)CC1CCOC1 (centres unmarked) [SJ000575190]",
    "targetEntity": "MAGE-A11:PCF11 interaction (GST-MAGE-A11 and FAM-PCF11_4) (Homo sapiens, UniProt P43364)",
    "result": 1.787
  },
  {
    "compound": "Clc1ccc2c(NCCCNCc3ccsc3)ccnc2c1 [SJ000523052]",
    "targetEntity": "MAGE-A11:PCF11 interaction (GST-MAGE-A11 and FAM-PCF11_4) (Homo sapiens, UniProt P43364)",
    "result": 15.2459
  },
  {
    "compound": "CCOC(=O)c1cnc2c(CC)cccc2c1NCCCN1CCOCC1 [SJ000185196]",
    "targetEntity": "MAGE-A11:PCF11 interaction (GST-MAGE-A11 and FAM-PCF11_4) (Homo sapiens, UniProt P43364)",
    "result": -4.499
  }
]

We now examine a further compound.
Problem: Given CCCN(CCCNc1c2ccc(Cl)cc2nc2ccc(OC)cc12)Cc1ccc(-c2ccccc2)cc1 [SJ000522740] , state its recorded percent inhibition (TR-FRET).
Solution: -74.0063
